Test system: c-Src
Test: phosphorylation enrichment, bacterial display (enrichment ratio); higher = better substrate or ligand; peptides without Tyr show the background;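 also: 11-residue human phosphosite peptides and single-mutation variants displayed on the E. coli surface, counted by deep sequencing, each peptide's frequency after selection divided by its frequency in the unselected input library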;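 also: frequency after pTyr selection over input frequency; kinase dosed for 20-30% of maximal phosphorylation in three min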
For each of the sequences below, state its phosphorylation enrichment.
Give bare numbers.

- item_sequence: "AKIDGYIISYR"
  target_under_test: "c-Src"
  value_observed: 0.568
- item_sequence: "ADRNHYRRFRR [YBX1_Y145_P149R_YF]"
  target_under_test: "c-Src"
  value_observed: 0.548
- item_sequence: "HNLNYYKKTTN [FGFR3_Y648_D646N]"
  target_under_test: "c-Src"
  value_observed: 0.429
- item_sequence: "RVQQIYSDSDL [MIB1_Y376]"
  target_under_test: "c-Src"
  value_observed: 5.32
- item_sequence: "DIPIRYSIMGV [CDH4_Y205_T208M]"
  target_under_test: "c-Src"
  value_observed: 0.448

Record phosphorylation enrichment per entry; entries follow.
1. CWAVKYLQMVG [AVPR2_Y117_R113W]
2. CKRQFYLYKGK [RSPO4_Y112]
3. LNPFIYSLRNR [OR1A1_Y288]

Outgoing:
[0.434, 0.312, 2.23]

Record phosphorylation enrichment per entry; entries follow.
1. RSRRSYSCQVM [IGLL1_Y192]
2. TNFSLYLRSLE [MTM1_Y71_R69S_YF]
3. VDLIVYLWTNP [TK2_Y181_R183W]
4. LRSRVYEVPVE [SLC26A3_Y756_N753S]
5. LLVVLYKYRCY [PSEN1_Y154]

Outgoing:
[0.924, 0.385, 0.423, 0.708, 0.609]

// phosphorylation enrichment lookup, sequence = CGLPRYRWLTH [TSPAN12_Y143_Y138C] , result: 0.357

###

Tested on: c-Src
Experiment: phosphorylation enrichment, bacterial display (enrichment ratio); higher = better substrate or ligand; peptides without Tyr show the background
Decide by phosphorylation enrichment: equal to or exceeding 0.5 means Condition met, less means Condition not met.

Some entries whose results are on file:
- item_sequence: "KPIETYFSKNY [PLP1_Y50_L46P]"
  label_value: "Condition not met"
- item_sequence: "NQNIGYELGHR [KCNN3_Y268_K269E]"
  label_value: "Condition not met"
- item_sequence: "GLQDEYDFKCK [STAT1_Y170_D165G]"
  label_value: "Condition met"

Incoming: Entry EEKKKYYDAKI [CASP5_Y103_T106A] : is its phosphorylation enrichment no less than 0.5?
Outgoing: Condition not met

Incoming: Entry RTTKTYFPHFD [HBA1_Y43_P38R] : is its phosphorylation enrichment no less than 0.5?
Outgoing: Condition met

Incoming: Entry SGEKPYKCSVC [ZNF543_Y283_E287V] : is its phosphorylation enrichment no less than 0.5?
Outgoing: Condition not met

###

Tested on: Fer (mouse)
Experiment: phosphorylation enrichment, bacterial display (enrichment ratio); higher = better substrate or ligand; peptides without Tyr show the background
For each of the sequences below, state its phosphorylation enrichment.
Answers are plain numbers.

Below: 3 sequences and their reported phosphorylation enrichment.
- item_sequence: "AEEKEYHAEEG [EGFR_Y869_G873E]"
  phosphorylation enrichment: 0.494
- item_sequence: "GRTNICKNKKD [SLC26A3_Y520_Y520C]"
  phosphorylation enrichment: 0.448
- item_sequence: "LDFPEYDGVDR [CASQ1_Y43]"
  phosphorylation enrichment: 0.719

Record phosphorylation enrichment per entry; entries follow.
1. QLQTNYPSSDN [MAX_Y115]
2. INMKKYCKKDY [NTN1_Y490]
3. WVFNHYRWIIW [BRCA2_Y2624_YF]
4. YPPDGYSRHYE [CTNND1_Y213]
5. TVVVPYEPPEV [TP53_Y220_S215T]
6. HISGVYKLPPD [ANGPTL7_Y145_R140H]

Outgoing:
[0.551, 0.434, 0.456, 0.354, 0.512, 0.618]

###

For each of the sequences below, state its phosphorylation enrichment.
Tested on: c-Abl (mouse)
Test: phosphorylation enrichment, bacterial display (enrichment ratio); higher = better substrate or ligand; peptides without Tyr show the background
Give bare numbers.

- item_sequence: "DDERGYRRVRC [GIGYF2_Y268_S273C]"
  value_observed: 0.647
- item_sequence: "KDFNKYVAFIE [KDM4B_Y31_YF]"
  value_observed: 0.629
- item_sequence: "APRKVYDTRDD [ZFPL1_Y215]"
  value_observed: 0.485
- item_sequence: "GLSAPYVKIHL [SYT2_Y309_D307A]"
  value_observed: 0.509

Record phosphorylation enrichment per entry; entries follow.
1. KDHPDYKYQAR [SOX10_Y171_P175A]
2. ETLLYYGCRRS [POR_Y564]
3. IDFARYWHGND [MMP11_Y162_D166N]

Outgoing:
[0.609, 0.883, 0.504]

###

Target: Fes (UniProt P07332)
Sequence (P07332 whole entry, looked up): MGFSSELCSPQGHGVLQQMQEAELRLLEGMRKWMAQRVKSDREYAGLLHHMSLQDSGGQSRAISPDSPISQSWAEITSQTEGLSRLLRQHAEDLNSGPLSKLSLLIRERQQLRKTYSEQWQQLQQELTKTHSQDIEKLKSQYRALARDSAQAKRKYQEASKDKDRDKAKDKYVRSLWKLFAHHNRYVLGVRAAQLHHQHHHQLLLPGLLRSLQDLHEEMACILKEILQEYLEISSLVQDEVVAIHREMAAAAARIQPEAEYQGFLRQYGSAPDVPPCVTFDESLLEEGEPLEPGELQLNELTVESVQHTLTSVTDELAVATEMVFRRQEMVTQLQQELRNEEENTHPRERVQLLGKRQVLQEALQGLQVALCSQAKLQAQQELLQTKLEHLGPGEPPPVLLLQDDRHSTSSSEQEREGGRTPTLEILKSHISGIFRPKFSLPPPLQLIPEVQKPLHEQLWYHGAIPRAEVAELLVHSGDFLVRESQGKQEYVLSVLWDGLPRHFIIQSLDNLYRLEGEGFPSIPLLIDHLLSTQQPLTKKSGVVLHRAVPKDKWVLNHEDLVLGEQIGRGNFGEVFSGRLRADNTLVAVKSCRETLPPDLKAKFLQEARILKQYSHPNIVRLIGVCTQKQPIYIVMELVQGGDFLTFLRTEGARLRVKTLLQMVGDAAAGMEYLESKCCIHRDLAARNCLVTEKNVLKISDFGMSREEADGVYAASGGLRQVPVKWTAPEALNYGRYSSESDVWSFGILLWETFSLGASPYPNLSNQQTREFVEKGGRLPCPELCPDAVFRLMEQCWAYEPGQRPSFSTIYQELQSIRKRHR
Test: phosphorylation enrichment, bacterial display (enrichment ratio); higher = better substrate or ligand; peptides without Tyr show the background
# thresholds on phosphorylation enrichment define classes: low value (below 0.8), medium value (0.8 to below 1), high value (1 or more)

Some entries whose results are on file:
- item_sequence: "FSNPAYFVLEG [INPPL1_Y986_N982S_YF]"
  label_value: "medium value"
- item_sequence: "NWGSPYKSNGC [ZNF347_Y261]"
  label_value: "high value"
- item_sequence: "IRQGHYESLKE [MTR_Y921_D919G]"
  label_value: "low value"
- item_sequence: "AVVEPYNSILT [TUBA1A_Y185]"
  label_value: "medium value"
- item_sequence: "TQNAVYSAANY [DDX5_Y535_G533A]"
  label_value: "medium value"

Incoming: Lab note: sort KRTFEYEAEKN [DENND2B_Y396_D399E] into the matching phosphorylation enrichment band.
Outgoing: low value

Incoming: Lab note: sort ALECLYHREKR [TEKT5_Y195] into the matching phosphorylation enrichment band.
Outgoing: high value

Incoming: Lab note: sort KLMTEYKKRKQ [ARFGEF3_Y2029] into the matching phosphorylation enrichment band.
Outgoing: low value

Incoming: Lab note: sort RFGKVYKGHLF [ROR2_Y488] into the matching phosphorylation enrichment band.
Outgoing: medium value

###

Molecular target: Fyn (UniProt P06241)
Sequence (P06241 whole entry, looked up): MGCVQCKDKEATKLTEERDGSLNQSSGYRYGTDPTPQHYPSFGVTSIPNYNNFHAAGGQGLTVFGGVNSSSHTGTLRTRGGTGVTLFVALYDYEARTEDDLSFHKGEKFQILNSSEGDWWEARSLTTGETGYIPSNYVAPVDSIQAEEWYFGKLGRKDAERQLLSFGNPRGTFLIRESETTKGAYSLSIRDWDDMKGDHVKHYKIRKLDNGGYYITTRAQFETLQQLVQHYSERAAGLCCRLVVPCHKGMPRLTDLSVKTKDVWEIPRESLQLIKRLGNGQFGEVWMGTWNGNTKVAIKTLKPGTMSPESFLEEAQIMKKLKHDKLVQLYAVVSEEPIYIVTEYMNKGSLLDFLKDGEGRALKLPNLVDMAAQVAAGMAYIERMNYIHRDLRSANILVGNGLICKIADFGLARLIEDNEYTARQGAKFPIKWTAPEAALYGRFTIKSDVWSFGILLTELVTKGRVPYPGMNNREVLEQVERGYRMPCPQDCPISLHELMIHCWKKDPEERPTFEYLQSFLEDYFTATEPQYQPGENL
Assay: phosphorylation enrichment, bacterial display (enrichment ratio); higher = better substrate or ligand; peptides without Tyr show the background
Decide by phosphorylation enrichment: equal to or exceeding 0.6 means True, less means False.

Some entries whose results are on file:
- item_sequence: "TVSSDYLHPQF [CCPG1_Y569_F566S_YF]"
  target_under_test: "Fyn (UniProt P06241)"
  label_value: "False"
- item_sequence: "DVRQEYPGMIL [PLXND1_Y616]"
  target_under_test: "Fyn (UniProt P06241)"
  label_value: "False"
- item_sequence: "PSGPAYRGAVP [ASAH1_Y43_T42A]"
  target_under_test: "Fyn (UniProt P06241)"
  label_value: "False"
- item_sequence: "KRGASYILKLA [SERPINB1_Y84]"
  target_under_test: "Fyn (UniProt P06241)"
  label_value: "False"
- item_sequence: "IGEGTYRTVFK [CDK5_Y15_G16R]"
  target_under_test: "Fyn (UniProt P06241)"
  label_value: "False"
- item_sequence: "TPTFPYLLPKS [PLD2_Y580_YF]"
  target_under_test: "Fyn (UniProt P06241)"
  label_value: "False"
- item_sequence: "MKVPLYETPAG [PGM5_Y358_V357L]"
  target_under_test: "Fyn (UniProt P06241)"
  label_value: "True"
- item_sequence: "RAMRRYLEWGE [ERBB3_Y680_R683W]"
  target_under_test: "Fyn (UniProt P06241)"
  label_value: "False"

Incoming: Entry HMEAVYIDIAD [PITPNA_Y140_V136M] : is its phosphorylation enrichment no less than 0.6?
Outgoing: True

Incoming: Entry RHPLEYLRQYP [NARS2_Y138] : is its phosphorylation enrichment no less than 0.6?
Outgoing: False

Incoming: Entry TWQSMYGCDVG [HLA-B_Y123_L119W] : is its phosphorylation enrichment no less than 0.6?
Outgoing: False

Incoming: Entry RLDGEYFTLQI [TP53_Y327_P322R] : is its phosphorylation enrichment no less than 0.6?
Outgoing: True

Incoming: Entry FSTDCYRVGGH [NTRK2_Y707_Y706C_YF] : is its phosphorylation enrichment no less than 0.6?
Outgoing: False

Incoming: Entry CKRQFYLYKGK [RSPO4_Y112] : is its phosphorylation enrichment no less than 0.6?
Outgoing: False

Incoming: Entry VQVAFYTVMMN [SPATA17_Y84_M86V_YF] : is its phosphorylation enrichment no less than 0.6?
Outgoing: False

Incoming: Entry DGMADCSDPSF [CDC5L_Y459_Y459C_YF] : is its phosphorylation enrichment no less than 0.6?
Outgoing: False

Incoming: Entry LQPNNCQFCGG [CSF1R_Y969_Y969C] : is its phosphorylation enrichment no less than 0.6?
Outgoing: True

Incoming: Entry PPSELYFVKVD [TERT_Y707_P704S] : is its phosphorylation enrichment no less than 0.6?
Outgoing: True
